TARGET: T1, recombinant human C1r2s2 tetramer (human, UniProt P09871 16-688; P00736 18-705)
T1 construct: C1s and C1r co-expressed in HEK293 and purified from the supernatant as tetramer; also called hC1r2s2
T1 chain 1: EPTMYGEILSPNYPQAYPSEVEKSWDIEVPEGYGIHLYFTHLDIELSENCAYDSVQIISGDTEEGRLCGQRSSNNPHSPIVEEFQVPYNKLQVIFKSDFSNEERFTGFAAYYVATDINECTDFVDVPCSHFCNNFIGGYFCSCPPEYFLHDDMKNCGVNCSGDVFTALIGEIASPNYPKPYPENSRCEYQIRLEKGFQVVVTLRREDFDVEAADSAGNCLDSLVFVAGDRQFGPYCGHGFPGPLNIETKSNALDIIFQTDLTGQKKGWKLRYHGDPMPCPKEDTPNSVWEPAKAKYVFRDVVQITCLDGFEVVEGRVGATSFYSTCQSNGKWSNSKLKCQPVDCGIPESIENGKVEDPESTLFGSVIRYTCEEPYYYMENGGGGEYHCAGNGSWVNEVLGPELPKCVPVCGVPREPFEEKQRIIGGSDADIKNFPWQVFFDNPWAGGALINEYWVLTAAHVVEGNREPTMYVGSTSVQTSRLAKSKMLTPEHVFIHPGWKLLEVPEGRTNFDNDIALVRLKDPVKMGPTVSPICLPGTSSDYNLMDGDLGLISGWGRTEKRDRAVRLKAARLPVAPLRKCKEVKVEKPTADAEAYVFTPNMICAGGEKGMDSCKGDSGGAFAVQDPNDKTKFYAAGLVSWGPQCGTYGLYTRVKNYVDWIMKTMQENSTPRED
T1 chain 2: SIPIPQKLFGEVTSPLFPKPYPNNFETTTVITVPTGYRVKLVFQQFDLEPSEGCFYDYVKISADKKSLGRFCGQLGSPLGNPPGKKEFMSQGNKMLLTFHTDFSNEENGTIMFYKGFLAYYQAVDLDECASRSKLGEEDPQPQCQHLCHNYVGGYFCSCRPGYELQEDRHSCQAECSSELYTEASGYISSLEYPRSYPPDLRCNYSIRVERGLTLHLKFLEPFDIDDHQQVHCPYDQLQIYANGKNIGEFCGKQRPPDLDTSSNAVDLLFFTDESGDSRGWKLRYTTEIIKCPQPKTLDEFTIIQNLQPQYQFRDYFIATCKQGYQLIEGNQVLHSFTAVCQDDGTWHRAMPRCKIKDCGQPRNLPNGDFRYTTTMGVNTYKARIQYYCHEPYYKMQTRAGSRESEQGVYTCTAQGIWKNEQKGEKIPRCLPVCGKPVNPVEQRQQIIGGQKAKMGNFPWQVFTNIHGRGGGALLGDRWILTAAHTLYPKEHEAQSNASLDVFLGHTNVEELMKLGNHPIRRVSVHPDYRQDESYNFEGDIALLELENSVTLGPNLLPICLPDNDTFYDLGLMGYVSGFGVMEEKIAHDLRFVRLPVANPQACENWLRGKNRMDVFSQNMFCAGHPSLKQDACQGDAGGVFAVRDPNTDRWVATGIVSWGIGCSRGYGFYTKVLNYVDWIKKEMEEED
PROTOCOL_DESCRIPTION: SPR (Biacore T200), 37 C, pH 6.0; hC1r2s2 captured by IPN009, antibody as analyte
What pKd was measured for each of the following?
Give bare numbers, as −log10 of the molar value.

Worked set:
- BINDER: "COS0637pHv23-G1A3FcgSil+LowpI (antibody, V domains shown, VH 28, VL 51, CH 45, CL 23) VH: QVQLVESGGGVVQPGRSLRLSCAASGFTFSAYAMNWIRQPPGKGLEWIGLIYGTGHEFYASWAEERVTISVDTSKNQFSLKLSSVTAADTAVYYCARGRSKNYNSDFHIWGQGTLVTVSS VL: DIQMTQSPSSLSASVGDRVTITCQAHEILHDKKNLAWYQQKPGQPPKLLIYSASILESGVPSRFSGSGSGTDFTLTISSLQPEDFATYYCHGEFSHGSADLNHFGQGTKVEIKR"
  pKd: 7.56
- BINDER: "COS0637pHv17-G1A3FcgSil+LowpI (antibody, V domains shown, VH 24, VL 55, CH 45, CL 23) VH: QVQLVESGGGVVQPGRSLRLSCAASGFTFSAYAMNWIRQPPGKGLEWIGLIYGSGHEFYASWAEERVTISVDTSKNQFSLKLSSVTAADTAVYYCARGRSKNYNSDFHLWGQGTLVTVSS VL: DIQMTQSPSSLSASVGDRVTITCQAHEILHDKKNLAWYQQKPGQPPKLLIYGASQRESGVPSRFSGSGSGTDFTLTISSLQPEDFATYYCHGEFPHSSADLNHFGQGTKVEIKR"
  pKd: 7.48

For the binder COS0637pHv21-G1A3FcgSil+LowpI (antibody, V domains shown, VH 24, VL 47, CH 45, CL 23) VH: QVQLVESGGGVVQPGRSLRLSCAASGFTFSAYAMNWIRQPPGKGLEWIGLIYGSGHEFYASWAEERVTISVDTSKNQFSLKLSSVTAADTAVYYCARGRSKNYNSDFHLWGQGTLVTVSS VL: DIQMTQSPSSLSASVGDRVTITCQAHEILHDKKNLAWYQQKPGQPPKLLIYSASILESGVPSRFSGSGSGTDFTLTISSLQPEDFATYYCHGEFSHGSGDLNHFGQGTKVEIKR , give its measured pKd value.
7.50
